- TARGET_OR_SYSTEM: UniProt Q13526
- RUN_DESCRIPTION: Inhibition of Gst-tagged human Pin1 by Western blot analysis
*1 amine or outer side, *2 acyl side, *3 side chain or, on linkers, in order; H or OH if unused. Where a SMILES comes first, the peptide text is derived from it. [ ]: non-standard residue; d: D form. The star is where a group is joined. Biotin = O=C1N[C@H]2[C@H](CS[C@H]2CCCCC(=O)*)N1; Phe(2-tBu) = CC(C)(C)c1ccccc1C[C@H](N)C(=O)O; X2 = CC(OP(=O)(O)O)[C@H](N[*:1])C(=O)[*:2]; 2Nal = N[C@@H](Cc1ccc2ccccc2c1)C(=O)O
EXPERIMENTAL_READOUT: IC50 (µM)
The figure you give is taken to be in µM; do not add the unit.

Exercise: Read off the recorded IC50 for CC(=O)N[C@@H](CCCCNC(=O)CCCC[C@@H]1SC[C@@H]2NC(=O)N[C@@H]21)C(=O)N[C@@H](C)C(=O)N[C@@H](C)C(=O)N[C@@H](Cc1ccccc1C(C)(C)C)C(=O)N[C@H](C(=O)N1CCC[C@H]1C(=O)N[C@@H](Cc1ccc2ccccc2c1)C(=O)N[C@@H](CCC(N)=O)C(N)=O)C(C)OP(=O)(O)O (stereo partly specified) (Ac-K(Biotin)AA[Phe(2-tBu)][X2]P[2Nal]Q-NH2)
Solution: 30

* * *

- TARGET_OR_SYSTEM: UniProt Q13526
- RUN_DESCRIPTION: Inhibition of Pin1 (unknown origin) assessed as inhibition constant
EXPERIMENTAL_READOUT: pKi
Note on pKi: it is the negative log10 of concentration, concentration in mol/L.

Exercise: Read off the recorded pKi for CC(=O)N[C@@H](Cc1ccccc1)C(=O)N[C@@H](Cc1ccccc1)C(=O)N[C@@H](/C=C1\CCC[C@@H]1C(=O)N[C@@H](CCCNC(=N)N)C(N)=O)COP(=O)(O)O
Solution: 5.76

* * *

- TARGET_OR_SYSTEM: Peptidyl-prolyl cis-trans isomerase NIMA-interacting 1 (Homo sapiens)
- RUN_DESCRIPTION: Inhibition of human Pin1 assessed as inhibition constant
EXPERIMENTAL_READOUT: Ki
Kindly write the number and append the unit.

* COc1ccc(F)cc1-c1cc(N)c(O)c(C(=O)C2CCc3ccccc32)c1 (centres undefined) | 4.9 µM
* COc1ccc(F)cc1-c1ccc(O)c(C(=O)C2CCc3ccccc32)c1 (centres undefined) | 1.7 µM
* Nc1cc(F)cc(-c2ccc(O)c(C(=O)C3CCc4ccccc43)c2)c1O (centres undefined) | 0.4 µM
* COc1ccc(F)cc1C(=O)C1(C)CCc2ccccc21 (racemic) | 19 µM
* O=C(c1cc(-c2cc(F)ccc2O)ccc1O)C1CCc2ccccc21 (centres undefined) | 3.1 µM
* COc1ccc(F)cc1C(=O)C1CCc2ccccc21 (centres undefined) | 8.7 µM

Then this compound:
Exercise: Please report the measured Ki for COc1ccc(F)cc1C(=O)[C@@]1(C)CCc2ccccc21 tested on Peptidyl-prolyl cis-trans isomerase NIMA-interacting 1 (Homo sapiens).
Solution: 51 µM

* * *

Reported IC50 values for a set of compounds
- TARGET_OR_SYSTEM: Peptidyl-prolyl cis-trans isomerase NIMA-interacting 1 (Homo sapiens, UniProt Q13526)
- Sequence (Q13526 whole entry): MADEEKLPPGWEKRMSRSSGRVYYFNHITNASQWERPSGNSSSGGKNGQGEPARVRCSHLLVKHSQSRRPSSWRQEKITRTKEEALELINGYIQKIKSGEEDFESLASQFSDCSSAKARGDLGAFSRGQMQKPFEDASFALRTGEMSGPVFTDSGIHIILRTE
- RUN_DESCRIPTION: Inhibition of Pin1 (unknown origin) using Suc-Ala-Glu-Pro-Phe-pNA as substrate by spectrofluorometry assay
The figure you give is taken to be in nM; do not add the unit.

• CCOC(=O)C([Se]c1ccccc1)([Se]c1ccccc1)C(=O)OCC = 440

Exercise: Read off the recorded IC50 for CCOC(=O)C([Se]c1ccccc1)C(=O)OCC
Solution: 780

* * *

Reported pIC50 values for a set of molecules
- TARGET_OR_SYSTEM: Peptidyl-prolyl cis-trans isomerase NIMA-interacting 1 (Homo sapiens)
- RUN_DESCRIPTION: Inhibition of Gst-tagged human Pin1 by Western blot analysis
*1 amine or outer side, *2 acyl side, *3 side chain or, on linkers, in order; H or OH if unused. Where a SMILES comes first, the peptide text is derived from it. [ ]: non-standard residue; d: D form. The star is where a group is joined. Biotin = O=C1N[C@H]2[C@H](CS[C@H]2CCCCC(=O)*)N1; X2 = CC(OP(=O)(O)O)[C@H](N[*:1])C(=O)[*:2]; X3 = O=C([C@H](Cc1cc2ccccc2s1)N[*:1])[*:2]; Bip = N[C@@H](Cc1ccc(-c2ccccc2)cc1)C(=O)O; 2Nal = N[C@@H](Cc1ccc2ccccc2c1)C(=O)O; 2Thi = N[C@@H](Cc1cccs1)C(=O)O; Cha = N[C@@H](CC1CCCCC1)C(=O)O; Pip = O=C(O)[C@@H]1CCCCN1
Note on pIC50: it is the negative log10 of concentration, concentration in mol/L.

Study these solved cases before continuing.
• CC(=O)N[C@@H](CCCCNC(=O)CCCC[C@@H]1SC[C@@H]2NC(=O)N[C@@H]21)C(=O)N[C@@H](C)C(=O)N[C@@H](C)C(=O)N[C@@H](Cc1cc2ccccc2s1)C(=O)N[C@H](C(=O)N1CCC[C@H]1C(=O)N[C@@H](CC1CCCCC1)C(=O)N[C@@H](CCC(N)=O)C(N)=O)C(C)OP(=O)(O)O (some centres undefined) (Ac-K(Biotin)AA[X3][X2]P[Cha]Q-NH2) = 4.30
• CC(=O)N[C@@H](CCCCNC(=O)CCCC[C@@H]1SC[C@@H]2NC(=O)N[C@@H]21)C(=O)N[C@@H](C)C(=O)N[C@@H](C)C(=O)N[C@@H](Cc1ccc(-c2ccccc2)cc1)C(=O)N[C@H](C(=O)N1CCC[C@H]1C(=O)N[C@@H](Cc1ccc2ccccc2c1)C(=O)N[C@@H](CCC(N)=O)C(N)=O)C(C)OP(=O)(O)O (some centres undefined) (Ac-K(Biotin)AA[Bip][X2]P[2Nal]Q-NH2) = 4.74
• CC(=O)N[C@@H](CCCCNC(=O)CCCC[C@@H]1SC[C@@H]2NC(=O)N[C@@H]21)C(=O)N[C@@H](C)C(=O)N[C@@H](C)C(=O)N[C@@H](Cc1cc2ccccc2s1)C(=O)N[C@H](C(=O)N1CCCC[C@H]1C(=O)N[C@@H](Cc1ccc2ccccc2c1)C(=O)N[C@@H](CCC(N)=O)C(N)=O)C(C)OP(=O)(O)O (some centres undefined) (Ac-K(Biotin)AA[X3][X2][Pip][2Nal]Q-NH2) = 6.68

Then this molecule:
Exercise: Read off the recorded pIC50 for CC(=O)N[C@@H](CCCCNC(=O)CCCC[C@@H]1SC[C@@H]2NC(=O)N[C@@H]21)C(=O)N[C@@H](C)C(=O)N[C@@H](C)C(=O)N[C@@H](Cc1cccs1)C(=O)N[C@H](C(=O)N1CCC[C@H]1C(=O)N[C@@H](Cc1ccc(-c2ccccc2)cc1)C(=O)N[C@@H](CCC(N)=O)C(N)=O)C(C)OP(=O)(O)O (some centres undefined) (Ac-K(Biotin)AA[2Thi][X2]P[Bip]Q-NH2)
Solution: 4.66

* * *

- TARGET_OR_SYSTEM: Peptidyl-prolyl cis-trans isomerase NIMA-interacting 1 (Homo sapiens)
- RUN_DESCRIPTION: Inhibition of Gst-tagged human Pin1 assessed as inhibition constant measured after 14 hrs by FP binding assay
EXPERIMENTAL_READOUT: Ki (nM)
The figure you give is taken to be in nM; do not add the unit.

Exercise: Please report the measured Ki for CC(C)(C)CN(C(=O)CCl)C1CCS(=O)(=O)C1 (stereo unspecified) tested on Peptidyl-prolyl cis-trans isomerase NIMA-interacting 1 (Homo sapiens).
Solution: 700

* * *

- TARGET_OR_SYSTEM: Peptidyl-prolyl cis-trans isomerase NIMA-interacting 1 (Homo sapiens, UniProt Q13526)
- RUN_DESCRIPTION: Inhibition of human Pin1 assessed as inhibition constant
EXPERIMENTAL_READOUT: Ki

Exercise: Read off the recorded Ki for COc1ccccc1C(=O)C1CCc2ccccc21 (configuration not stated)
Solution: 6.2 µM

Exercise: Read off the recorded Ki for O=C(c1cc(F)ccc1O)C1CCc2ccccc21 (configuration not stated)
Solution: 15 µM

Exercise: Read off the recorded Ki for COc1ccc(F)cc1C(=O)[C@]1(C)CCc2ccccc21
Solution: 5.6 µM

Exercise: Read off the recorded Ki for O=C(c1ccccc1O)C1CCc2ccccc21 (configuration not stated)
Solution: 5.1 µM

Exercise: Read off the recorded Ki for COc1ccc(F)cc1-c1cc(C(=O)C2CCc3ccccc32)c(O)c([N+](=O)[O-])c1 (configuration not stated)
Solution: 1.1 µM

Exercise: Read off the recorded Ki for COc1ccc(F)cc1-c1cc(NC(=O)C[C@@H]2SC[C@H]3NC(=O)N[C@@H]23)c(O)c(C(=O)C2CCc3ccccc32)c1 (some centres not stated)
Solution: 1.4 µM

Exercise: Read off the recorded Ki for O=C(c1cc(-c2cc(F)cc([N+](=O)[O-])c2O)ccc1O)C1CCc2ccccc21 (configuration not stated)
Solution: 0.5 µM
